Target: Adenosine receptor A3 (Homo sapiens, UniProt P0DMS8)
Test: Binding affinity to human adenosine A3 receptor by radioligand displacement assay
quantity_name: Ki (µM)
Answers are plain numbers, in µM.

Suppose we examine the molecule CCCn1c(=O)c2[nH]c(C34CC5CC(CC3C5)C4)nc2n(CCC)c1=O [ROLOFYLLINE] ; what Ki value has been reported? 4.39

* * *

Target: UniProtKB P08684
Sequence (P08684 whole entry): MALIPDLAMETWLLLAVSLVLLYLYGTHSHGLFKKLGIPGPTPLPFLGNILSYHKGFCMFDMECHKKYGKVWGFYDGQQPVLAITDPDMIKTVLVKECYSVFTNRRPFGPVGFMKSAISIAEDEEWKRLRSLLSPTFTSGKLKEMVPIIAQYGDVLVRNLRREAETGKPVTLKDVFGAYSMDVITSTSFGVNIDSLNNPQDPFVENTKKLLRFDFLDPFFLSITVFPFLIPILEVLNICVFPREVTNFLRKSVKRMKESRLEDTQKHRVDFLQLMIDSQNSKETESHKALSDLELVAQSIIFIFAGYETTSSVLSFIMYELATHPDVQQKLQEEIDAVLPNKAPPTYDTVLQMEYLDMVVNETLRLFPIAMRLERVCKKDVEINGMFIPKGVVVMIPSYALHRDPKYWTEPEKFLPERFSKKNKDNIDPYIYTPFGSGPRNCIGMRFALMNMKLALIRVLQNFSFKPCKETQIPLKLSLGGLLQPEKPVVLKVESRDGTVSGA
Assay: Inhibition of recombinant human CYP3A4 by bioluminescence method
quantity_name: pIC50
One number for each entry, as −log10 of the molar value.

Suppose we examine the compound `CCCCn1c(=O)c2c(nc3n2CCCN3CCc2ccc(OCC(=O)NCCCN(CC)CC)cc2)n(CCCC)c1=O` ; what pIC50 value has been reported? 6.64

* * *

I'd be grateful if you could share measured Ki for these entries.
Target: Adenosine receptor A3 (Homo sapiens)
Experiment: Displacement of [3H]PSB-11 from human adenosine A3 receptor expressed in CHO cell membranes
Answers are plain numbers, in nM.

>>> value_reported("CCCCn1c(=O)c2c(nc3n2CCCN3CCc2ccc(OCC(=O)NCCCN(CC)CC)cc2)n(CCCC)c1=O")
248
>>> value_reported("CCCn1c(=O)c2c(nc3n2CCCN3CCc2ccc(OCC(=O)NCCCn3ccnc3)cc2)n(CCC)c1=O")
1000
>>> value_reported("CCCCn1c(=O)c2c(nc3n2CCCN3CCc2ccc(OCC(=O)NCCCn3ccnc3)cc2)n(CCCC)c1=O")
868

Attention now shifts to the item below.
Suppose we examine the compound `CCCn1c(=O)c2c(nc3n2CCCN3CCc2ccc(OCC(=O)NCCCNC3CCCCC3)cc2)n(CCC)c1=O` ; what Ki value has been reported? 458

* * *

Biological target: Adenosine receptor A2a (Rattus norvegicus, UniProt P30543)
Sequence (P30543 whole entry): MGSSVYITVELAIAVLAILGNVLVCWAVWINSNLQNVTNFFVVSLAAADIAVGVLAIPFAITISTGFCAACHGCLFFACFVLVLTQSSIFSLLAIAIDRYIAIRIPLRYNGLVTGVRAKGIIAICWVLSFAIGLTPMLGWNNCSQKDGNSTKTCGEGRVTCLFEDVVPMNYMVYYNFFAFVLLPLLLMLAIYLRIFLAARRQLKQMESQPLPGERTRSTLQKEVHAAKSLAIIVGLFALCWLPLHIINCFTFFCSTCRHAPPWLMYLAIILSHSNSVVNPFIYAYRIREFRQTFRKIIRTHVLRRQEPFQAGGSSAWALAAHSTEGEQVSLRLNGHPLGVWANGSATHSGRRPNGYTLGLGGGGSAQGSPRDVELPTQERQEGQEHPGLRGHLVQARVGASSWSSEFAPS
I'd be grateful if you could share measured Ki for these entries.
Give bare numbers, in µM.

Recorded Ki, per entry:
>>> value_reported("CCCn1c(=O)c2c(nc3n2CCCN3CCc2ccc(OCC(=O)NCc3ccccc3)cc2)n(CCC)c1=O")
3.23
>>> value_reported("CCCCn1c(=O)c2c(nc3n2CCCN3CCc2ccc(OCC(=O)NCc3cccc(OC)c3)cc2)n(CCCC)c1=O")
1.63
>>> value_reported("CCCCn1c(=O)c2c(nc3n2CCCN3CCc2ccc(OCC(=O)NCc3ccccc3)cc2)n(CCCC)c1=O")
1.29
>>> value_reported("CCCn1c(=O)c2c(nc3n2CCCN3CCc2ccc(OCC(=O)NCc3cccc(Cl)c3)cc2)n(CCC)c1=O")
0.807
>>> value_reported("CCCCn1c(=O)c2c(nc3n2CCCN3CCc2ccc(OCC(=O)NCc3cccc(Cl)c3)cc2)n(CCCC)c1=O")
6.52

Each compound below has a recorded value; state its Ki.
1. CCCn1c(=O)c2c(nc3n2CCCN3CCc2ccc(OCC(=O)NCCN3CCCC3)cc2)n(CCC)c1=O
2. CCCCn1c(=O)c2c(nc3n2CCCN3CCc2ccc(OCC(=O)NCCN3CCOCC3)cc2)n(CCCC)c1=O

1: 0.551; 2: 0.671

* * *

I'd be grateful if you could share measured inhibition for these entries.
Biological target: Adenosine receptor A3 (Homo sapiens)
Assay: Displacement of [3H]PSB-11 from human adenosine A3 receptor expressed in CHO cell membranes at 1 uM relative to control
Give bare numbers, in %.

>>> value_reported("CCCn1c(=O)c2c(nc3n2CCCN3CCc2ccc(OCC(=O)NCCc3ccccn3)cc2)n(CCC)c1=O")
31
>>> value_reported("CCCCn1c(=O)c2c(nc3n2CCCN3CCc2ccc(OCC(=O)NCCc3ccc(S(N)(=O)=O)cc3)cc2)n(CCCC)c1=O")
23
>>> value_reported("CCCn1c(=O)c2c(nc3n2CCCN3CCc2ccc(OCC(=O)NCc3ccc(F)cc3)cc2)n(CCC)c1=O")
41

Attention now shifts to the item below.
Suppose we examine the molecule `CCCCn1c(=O)c2c(nc3n2CCCN3CCc2ccc(OCC(=O)NCCN3CCOCC3)cc2)n(CCCC)c1=O` ; what inhibition value has been reported? 46

* * *

I'd be grateful if you could share measured Ki for these entries.
Target: Adenosine receptor A3 (Homo sapiens, UniProt P0DMS8)
Sequence (P0DMS8 whole entry): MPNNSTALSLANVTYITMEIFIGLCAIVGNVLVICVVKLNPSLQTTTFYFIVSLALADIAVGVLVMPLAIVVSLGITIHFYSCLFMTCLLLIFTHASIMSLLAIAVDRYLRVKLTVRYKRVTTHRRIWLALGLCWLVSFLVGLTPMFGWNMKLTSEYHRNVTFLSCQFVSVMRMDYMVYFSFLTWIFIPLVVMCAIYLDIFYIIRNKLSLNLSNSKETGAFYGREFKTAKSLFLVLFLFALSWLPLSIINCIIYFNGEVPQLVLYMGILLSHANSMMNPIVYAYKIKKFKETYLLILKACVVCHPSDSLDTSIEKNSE
Assay: Displacement of [3H]PSB-11 from human adenosine A3 receptor expressed in CHO cell membranes

>>> value_reported("CCCCn1c(=O)c2c(nc3n2CCCN3CCc2ccc(OCC(=O)NCCc3ccccn3)cc2)n(CCCC)c1=O")
"> 1 µM"

Each molecule below has a recorded value; state its Ki.
1. CCCn1c(=O)c2c(nc3n2CCCN3CCc2ccc(OCC(=O)NCc3ccc(Cl)cc3)cc2)n(CCC)c1=O
2. CCCCn1c(=O)c2c(nc3n2CCCN3CCc2ccc(OCC(=O)NCc3ccccc3)cc2)n(CCCC)c1=O
3. CCCn1c(=O)c2c(nc3n2CCCN3CCc2ccc(OCC(=O)NCc3ccccc3)cc2)n(CCC)c1=O
4. CCCCn1c(=O)c2c(nc3n2CCCN3CCc2ccc(OCC(=O)NCCc3ccc(S(N)(=O)=O)cc3)cc2)n(CCCC)c1=O
5. CCCCn1c(=O)c2c(nc3n2CCCN3CCc2ccc(OCC(=O)NCCN(CC)CC)cc2)n(CCCC)c1=O
6. CCCn1c(=O)c2c(nc3n2CCCN3CCc2ccc(OCC(=O)NCCc3ccccn3)cc2)n(CCC)c1=O

["1.09 µM", "0.602 µM", "> 1 µM", "> 1 µM", "0.155 µM", "> 1 µM"]

Suppose we examine the molecule `CCCn1c(=O)c2c(nc3n2CCCN3CCc2ccc(OCC(=O)NCCCN3CCCC3)cc2)n(CCC)c1=O` ; what Ki value has been reported? > 1 µM

* * *

Biological target: Adenosine receptor A1 (Rattus norvegicus)
Sequence (P25099 whole entry): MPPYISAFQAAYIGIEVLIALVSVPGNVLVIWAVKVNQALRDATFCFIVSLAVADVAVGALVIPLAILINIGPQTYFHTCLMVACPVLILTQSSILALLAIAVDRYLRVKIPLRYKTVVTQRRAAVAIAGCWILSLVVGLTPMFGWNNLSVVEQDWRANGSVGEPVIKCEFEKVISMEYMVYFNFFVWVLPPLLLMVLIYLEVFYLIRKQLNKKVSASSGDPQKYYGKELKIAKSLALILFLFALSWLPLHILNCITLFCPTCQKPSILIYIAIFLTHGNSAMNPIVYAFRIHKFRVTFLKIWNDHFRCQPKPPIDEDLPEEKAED
pKi: −log10 of the molar value.
# binarize pKi: threshold 7 inclusive, high side YES, low side NO

>>> class_label("CCCn1c(=O)c2c(nc3n2CCCN3CCc2ccc(OCC(=O)NCc3ccccc3)cc2)n(CCC)c1=O")
"NO"
>>> class_label("CCCCn1c(=O)c2c(nc3n2CCCN3CCc2ccc(OCC(=O)NCc3cccc(Cl)c3)cc2)n(CCCC)c1=O")
"NO"
>>> class_label("CCCCn1c(=O)c2c(nc3n2CCCN3CCc2ccc(OCC(=O)NCCCN(CC)CC)cc2)n(CCCC)c1=O")
"YES"
>>> class_label("CCCCn1c(=O)c2c(nc3n2CCCN3CCc2ccc(OCC(=O)NCCN(CC)CC)cc2)n(CCCC)c1=O")
"YES"

Exam item: decide whether the reported pKi for `CCCn1c(=O)c2c(nc3n2CCCN3CCc2ccc(OCC(=O)NCCc3ccc(S(N)(=O)=O)cc3)cc2)n(CCC)c1=O` is at least 7. NO

Note, next up: `CCCn1c(=O)c2c(nc3n2CCCN3CCc2ccc(OCC(=O)NCc3ccc(Cl)cc3)cc2)n(CCC)c1=O` NO

Note, next up: `CCCCn1c(=O)c2c(nc3n2CCCN3CCc2ccc(OCC(=O)NCCN3CCCC3)cc2)n(CCCC)c1=O` YES

* * *

Biological target: UniProtKB P25099
Assay: Displacement of [3H]CCPA from adenosine A1 receptor in rat brain cortical membranes at 1 uM relative to control
Format: cell membranes
I'd be grateful if you could share measured inhibition for these entries.
One number for each entry, in %.

Each molecule below has a recorded value; state its inhibition.
1. CCCn1c(=O)c2c(nc3n2CCCN3CCc2ccc(OCC(=O)NCc3ccc(F)cc3)cc2)n(CCC)c1=O
2. CCCn1c(=O)c2c(nc3n2CCCN3CCc2ccc(OCC(=O)NCc3ccc(Cl)cc3)cc2)n(CCC)c1=O
3. CCCn1c(=O)c2c(nc3n2CCCN3CCc2ccc(OCC(=O)NCc3cccc(OC)c3)cc2)n(CCC)c1=O
4. CCCCn1c(=O)c2c(nc3n2CCCN3CCc2ccc(OCC(=O)NCCc3ccc(S(N)(=O)=O)cc3)cc2)n(CCCC)c1=O
5. CCCn1c(=O)c2c(nc3n2CCCN3CCc2ccc(OCC(=O)NCCc3ccc(S(N)(=O)=O)cc3)cc2)n(CCC)c1=O
6. CCCn1c(=O)c2c(nc3n2CCCN3CCc2ccc(OCC(=O)NCc3ccccc3)cc2)n(CCC)c1=O

1. 37
2. 18
3. 22
4. 27
5. 45
6. 26
